Task for the reader: assign each of the following molecules its reported Plant response rating, Pigweed.
Tested on: pigweed (Amaranthus retroflexus)
Test: Test A preemergence
Assay type: in vivo
Details: 125 g ai/ha, Preemergence; visual injury after approximately 10 d; 0 to 100 scale where 0 is no effect and 100 is complete control
Number only, no unit.

[ask] For the molecule C=CCOc1cccc(C2CNC(=O)C2(CC=C)C(=O)Nc2cccc(F)c2F)c1 (stereo not drawn) , what Plant response rating, Pigweed is on record?
[reply] 0

[ask] For the molecule O=C1NCC(c2cc(F)c(F)cc2F)C1C(=O)Nc1cccc(F)c1F (racemic) , what Plant response rating, Pigweed is on record?
[reply] 0

[ask] For the molecule CCc1cccc(C2CN(C)C(=O)C2C(=O)Nc2ccc(F)cc2F)c1 (stereo not drawn) , what Plant response rating, Pigweed is on record?
[reply] 40

[ask] For the molecule O=C1NCC(c2cc(F)ccc2F)C1C(=O)Nc1cccc(F)c1F (racemic) , what Plant response rating, Pigweed is on record?
[reply] 0

[ask] For the molecule O=C1NCC(c2cc(F)c(F)cc2F)C1C(=O)Nc1ccccc1F (racemic) , what Plant response rating, Pigweed is on record?
[reply] 0

[ask] For the molecule CN1CC(c2cccc(C(F)(F)F)c2)C(C(=O)Nc2ccc(F)cc2F)C1=O (stereo not drawn) , what Plant response rating, Pigweed is on record?
[reply] 30

[ask] For the molecule CN1CC(c2cccc(F)c2)C(C(=O)Nc2cccc(F)c2F)C1=O (stereo not drawn) , what Plant response rating, Pigweed is on record?
[reply] 0

[ask] For the molecule O=C1NCC(c2cccc(C(F)(F)F)c2)C1C(=O)Nc1ccc(F)cc1Cl (racemic) , what Plant response rating, Pigweed is on record?
[reply] 0

[ask] For the molecule CN1CC(c2cccc(OC(F)(F)C(F)F)c2)C(C(=O)Nc2ccccc2F)C1=O (stereo not drawn) , what Plant response rating, Pigweed is on record?
[reply] 40

----------
Test system: giant foxtail (Setaria faberi)
Assay: Test G Post-Emergence Protocol
Format: in vivo
Conditions: Setaria faberi, post-emergence, 312 h, 62.5 g ai/ha, evaluated after 13 days, 100=total damage to plant, 0=no damage to plant, read-out: Foxtail, Giant damage rating
METRIC NAME: pest or weed control at 62.5 g/ha (%)
Give the number; % is assumed, so skip it.

[ask] For the compound CN1C[C@H](c2ccc(C(F)(F)F)cc2)[C@@H](C(=O)Nc2cnccc2C#N)C1=O (racemic) , what pest or weed control at 62.5 g/ha is on record?
[reply] 0

[ask] For the compound Cc1cc(C2CN(C)C(=O)C2C(=O)Nc2cccc(F)c2F)cc(C(F)(F)F)c1 (stereo not shown) , what pest or weed control at 62.5 g/ha is on record?
[reply] 80

[ask] For the compound CN1CCC(NC(=O)[C@H]2C(=O)N(C)C[C@@H]2c2ccc(C(F)(F)F)cc2)C1=O (mixture of isomers) , what pest or weed control at 62.5 g/ha is on record?
[reply] 0

[ask] For the compound Cc1cc([C@H]2CN(C)C(=O)[C@@H]2C(=O)Nc2ccccc2S(C)(=O)=O)cc(C(F)(F)F)c1 (racemic) , what pest or weed control at 62.5 g/ha is on record?
[reply] 80

----------
Test system: giant foxtail (Setaria faberii)
Test: Test A postemergence
Format: in vivo
Conditions: Setaria faberi, post-emergence, 240 h, 125 g ai/ha, postemergence; visual injury on 0 to 100 scale (0 no effect, 100 complete control), approx. 10 d; read-out: Foxtail, Giant plant response rating
Task for the reader: assign each of the following compounds its reported pest or weed control at 125 g/ha.
Give the number; % is assumed, so skip it.

[ask] For the compound CC(C)COc1cccc([C@H]2CN(C)C(=O)[C@@H]2C(=O)Nc2cccc(F)c2F)c1 , what pest or weed control at 125 g/ha is on record?
[reply] 80

[ask] For the compound CN1C[C@H](c2ccc(C(F)(F)F)cc2)[C@@](F)(C(=O)Nc2cccc(F)c2F)C1=O (racemic) , what pest or weed control at 125 g/ha is on record?
[reply] 70

[ask] For the compound CN1CC(c2cccc(C(F)(F)F)c2)C(C(=O)Nc2ccccc2C(C)(C)O)C1=O (stereo not shown) , what pest or weed control at 125 g/ha is on record?
[reply] 20

[ask] For the compound CN1CC(c2ccccc2OC(F)(F)C(F)F)C(C(=O)Nc2ccccc2F)C1=O (stereo not shown) , what pest or weed control at 125 g/ha is on record?
[reply] 0

[ask] For the compound CN1C[C@H](c2cc(C(F)F)cs2)[C@@H](C(=O)Nc2cnccc2C(F)(F)F)C1=O , what pest or weed control at 125 g/ha is on record?
[reply] 0

[ask] For the compound CN1C[C@H](c2csc3ccccc23)[C@@H](C(=O)Nc2ccccc2F)C1=O , what pest or weed control at 125 g/ha is on record?
[reply] 90

[ask] For the compound O=C1NC[C@H](c2csc(C(F)F)c2)[C@H]1C(=O)Nc1cccc(F)c1F , what pest or weed control at 125 g/ha is on record?
[reply] 30

[ask] For the compound CN1C[C@H](c2csc3c2CCC3)[C@@H](C(=O)Nc2ccccc2S(C)(=O)=O)C1=O , what pest or weed control at 125 g/ha is on record?
[reply] 0

[ask] For the compound Cc1ccc([C@H]2CN(C)C(=O)[C@@H]2C(=O)Nc2cc(F)c(F)c(F)c2F)cc1 , what pest or weed control at 125 g/ha is on record?
[reply] 80

[ask] For the compound CN1C[C@H](c2csc3ccccc23)[C@@H](C(=O)Nc2cccc(F)c2F)C1=O , what pest or weed control at 125 g/ha is on record?
[reply] 70

----------
Tested on: barnyardgrass (Echinochloa crus-galli)
Assay: Test G Pre-Emergence Protocol
Assay type: in vivo
Settings: Echinochloa crus-galli, pre-emergence, 312 h, 62.5 g ai/ha, evaluated after 13 days, 100=total damage to plant, 0=no damage to plant, read-out: plant damage rating, Barnyardgrass
METRIC NAME: pest or weed control at 62.5 g/ha (%)
Give the number; % is assumed, so skip it.

[ask] Please provide the recorded pest or weed control at 62.5 g/ha for CN1C[C@H](c2cccc(C(F)(F)F)c2)[C@@H](C(=O)Nc2cccnc2F)C1=O [Compound 1397] , tested on barnyardgrass (Echinochloa crus-galli).
[reply] 90

[ask] Please provide the recorded pest or weed control at 62.5 g/ha for Cc1ccc(NC(=O)[C@H]2C(=O)N(C)C[C@@H]2c2ccc(C(F)(F)F)cc2)nc1 (racemic) [Compound 1484] , tested on barnyardgrass (Echinochloa crus-galli).
[reply] 10

[ask] Please provide the recorded pest or weed control at 62.5 g/ha for CN1C[C@@H](c2ccc(C(F)(F)F)cc2)[C@H](C(=O)Nc2ncc(C#N)s2)C1=O (racemic) [Compound 1528] , tested on barnyardgrass (Echinochloa crus-galli).
[reply] 0

[ask] Please provide the recorded pest or weed control at 62.5 g/ha for Cc1ccncc1NC(=O)[C@@H]1C(=O)N(C)C[C@H]1c1ccc(C(F)(F)F)cc1 (racemic) [Compound 1505] , tested on barnyardgrass (Echinochloa crus-galli).
[reply] 0

[ask] Please provide the recorded pest or weed control at 62.5 g/ha for CN1C[C@@H](c2ccc(C(F)(F)F)cc2)[C@H](C(=O)Nc2cc(C(F)(F)F)nn2C)C1=O (racemic) [Compound 1510] , tested on barnyardgrass (Echinochloa crus-galli).
[reply] 0

[ask] Please provide the recorded pest or weed control at 62.5 g/ha for CN1C[C@H](c2ccc3occc3c2)[C@@H](C(=O)Nc2cccc(F)c2F)C1=O (racemic) [Compound 1500] , tested on barnyardgrass (Echinochloa crus-galli).
[reply] 90

[ask] Please provide the recorded pest or weed control at 62.5 g/ha for CN1C[C@@H](c2ccc(C(F)(F)F)cc2)[C@H](C(=O)Nc2nc[nH]n2)C1=O (racemic) [Compound 1534] , tested on barnyardgrass (Echinochloa crus-galli).
[reply] 0

----------
Tested on: ryegrass, Italian (Italian ryegrass, Lolium multiflorum)
Assay: Test A postemergence
Type: in vivo
Conditions: 500 g ai/ha, postemergence; visual injury, 0 to 100 scale (0 no effect, 100 complete control), approx. 10 d
METRIC NAME: Plant response rating, Ryegrass, Italian
Number only, no unit.

[ask] For the molecule C=CCOc1cccc(C2CNC(=O)C2(CC=C)C(=O)Nc2cccc(F)c2F)c1 (stereo not shown) [Compound 631] , what Plant response rating, Ryegrass, Italian is on record?
[reply] 0

[ask] For the molecule CN1CC(c2cccc(F)c2)C(C(=O)Nc2ccc(F)cc2F)C1=O (stereo not shown) [Compound 633] , what Plant response rating, Ryegrass, Italian is on record?
[reply] 50

[ask] For the molecule O=C1NCC(c2cccc(OC(F)(F)C(F)F)c2)C1C(=O)Nc1cccc(F)c1F (racemic) [Compound 697] , what Plant response rating, Ryegrass, Italian is on record?
[reply] 30

[ask] For the molecule CN1CC(c2cccc(F)c2)C(C(=O)Nc2cccc(F)c2F)C1=O (stereo not shown) [Compound 632] , what Plant response rating, Ryegrass, Italian is on record?
[reply] 50

[ask] For the molecule CN1CC(c2cccc(C(F)(F)F)c2)C(C(=O)Nc2ccccc2C(F)(F)F)C1=O (stereo not shown) [Compound 638] , what Plant response rating, Ryegrass, Italian is on record?
[reply] 40

[ask] For the molecule CN1CC(c2cc(F)cc(F)c2)C(C(=O)Nc2ccccc2F)C1=O (stereo not shown) [Compound 643] , what Plant response rating, Ryegrass, Italian is on record?
[reply] 30

[ask] For the molecule COC(=O)c1ccccc1NC(=O)C1C(=O)NCC1c1cccc(C(F)(F)F)c1 (racemic) [Compound 705] , what Plant response rating, Ryegrass, Italian is on record?
[reply] 0
